- SUBJECT OF TEST: Glutamate receptor ionotropic, NMDA 1 (Homo sapiens, UniProt Q05586)
- TEST: Concentration required for 50% Inhibition of responses at cloned NR1A/2AB NMDA expressed in Xenopus oocytes
VALUE KIND: IC50 (µM)

Some molecules with recorded IC50:
Oc1nc2cc(C#CCN3CCC(Cc4ccc(F)cc4)CC3)ccc2[nH]1	0.0082
C(#Cc1ccc2[nH]nnc2c1)CN1CCC(Cc2ccccc2)CC1	0.42

a. Oc1nc2cc(C#CCN3CCC(Cc4ccc(Cl)cc4)CC3)ccc2[nH]1
b. S=c1[nH]c2ccc(C#CCCN3CCC(Cc4ccccc4)CC3)cc2[nH]1
[in] Out of a and b , name the one with the higher IC50. Respond using the label that marks the chosen record.
[out] b

Every entry's value here was drawn from ChEMBL document CHEMBL1133639.
